These measurements were taken from patent US20160046618A1.

Recorded IC50, one value per entry.
target-entity: human recombinant BACE2 (Homo sapiens (Human))
Sequence (Q9Y5Z0 63-518): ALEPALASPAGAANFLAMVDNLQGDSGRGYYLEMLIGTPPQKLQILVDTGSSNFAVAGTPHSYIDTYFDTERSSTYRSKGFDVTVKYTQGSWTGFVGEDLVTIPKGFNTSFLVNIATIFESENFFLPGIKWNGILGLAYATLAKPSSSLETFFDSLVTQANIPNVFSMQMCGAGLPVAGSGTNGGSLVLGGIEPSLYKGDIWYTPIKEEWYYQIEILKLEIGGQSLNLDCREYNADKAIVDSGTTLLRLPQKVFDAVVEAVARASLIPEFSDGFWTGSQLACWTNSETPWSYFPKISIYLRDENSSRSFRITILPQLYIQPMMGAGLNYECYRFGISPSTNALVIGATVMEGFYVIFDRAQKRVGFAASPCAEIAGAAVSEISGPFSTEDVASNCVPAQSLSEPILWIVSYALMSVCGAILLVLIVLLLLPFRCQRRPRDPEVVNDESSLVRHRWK
experiment-summary: In vitro enzymatic BACE2 FRET assay
Assay type: biochemical
test-context: read-out: IC50 IP (μM) BACE2 enzyme
Your answer should be a plain number; it is taken to be in µM.

Reference set, count: 3
# mol-smiles, parameter, value-measured
records = [
    ("CC(C)NC(=O)c1cnc2c(Nc3cnc(F)c([C@@]4(C)N=C(N)S[C@@]5(C(F)F)C[C@@H]45)c3)nccc2c1", "IC50", 2.35),
    ("C#CCOc1cnc(C(=O)Nc2ccc(F)c([C@@]3(C)N=C(N)S[C@@]4(CF)C[C@H]43)c2)c(C)c1", "IC50", 0.026),
    ("C#CCOc1cnc(C(=O)Nc2cc(F)c(F)c([C@@]3(C)N=C(N)S[C@@]4(CF)C[C@H]43)c2)c(Cl)c1", "IC50", 0.0231),
]

Now turn to the next compound.
For record C#CCOc1cnc(C(=O)Nc2ccc(F)c([C@@]3(C)N=C(N)S[C@@]4(COC)C[C@H]43)c2)c(C)c1 the listed IC50 is 0.0267
